Reported pIC50 by item:
- measurement target: 17-beta-hydroxysteroid dehydrogenase type 1 (Homo sapiens, UniProt P14061)
- Sequence (P14061 whole entry): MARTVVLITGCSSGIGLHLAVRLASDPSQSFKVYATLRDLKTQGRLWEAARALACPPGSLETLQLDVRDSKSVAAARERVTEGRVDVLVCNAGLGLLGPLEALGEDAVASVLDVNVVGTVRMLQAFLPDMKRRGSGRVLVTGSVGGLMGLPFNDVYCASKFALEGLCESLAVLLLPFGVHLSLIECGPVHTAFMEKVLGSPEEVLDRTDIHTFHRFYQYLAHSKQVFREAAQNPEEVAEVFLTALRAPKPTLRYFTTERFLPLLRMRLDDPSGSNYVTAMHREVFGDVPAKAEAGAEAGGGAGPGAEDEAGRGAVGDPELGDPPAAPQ
- test name: Inhibition of human placental cytosolic 17beta-HSD1 using [3H]-E1/E1 substrate and NADH after 10 mins by HPLC based radio-detection method
pIC50: −log10 of the molar value.
measurement name: pIC50

>  <smiles representation>
NS(=O)(=O)Oc1ccccc1-c1ccc(C(=O)c2c(F)ccc(O)c2F)s1

>  <result value>
7.65

$$$$
>  <smiles representation>
Cc1cc(OS(N)(=O)=O)ccc1-c1ccc(C(=O)c2c(F)ccc(O)c2F)s1

>  <result value>
7.36

$$$$
>  <smiles representation>
NS(=O)(=O)Oc1cccc(-c2ccc(C(=O)c3c(F)ccc(O)c3F)s2)c1F

>  <result value>
8.15

$$$$

====

- measurement target: 17-beta-hydroxysteroid dehydrogenase type 2 (Homo sapiens)
- Sequence (P37059 whole entry): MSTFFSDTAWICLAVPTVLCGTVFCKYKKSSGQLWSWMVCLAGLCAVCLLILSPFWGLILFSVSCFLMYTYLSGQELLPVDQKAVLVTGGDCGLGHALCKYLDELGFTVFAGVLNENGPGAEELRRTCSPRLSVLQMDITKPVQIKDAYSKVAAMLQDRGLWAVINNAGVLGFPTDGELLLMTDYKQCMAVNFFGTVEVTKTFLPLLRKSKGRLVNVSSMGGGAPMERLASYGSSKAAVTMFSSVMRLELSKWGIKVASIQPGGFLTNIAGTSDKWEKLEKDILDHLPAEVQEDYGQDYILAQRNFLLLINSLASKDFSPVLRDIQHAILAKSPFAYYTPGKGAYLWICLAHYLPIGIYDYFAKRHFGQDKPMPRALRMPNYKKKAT
- test name: Inhibition of human placental microsomal 17beta-HSD2 using [3H]-E2/E2 substrate and NAD+ after 20 mins by HPLC based radio-detection method
pIC50: −log10 of the molar value.
Recorded measurements of pIC50, one per entry

>  <smiles representation>
NS(=O)(=O)Oc1cccc(-c2ccc(C(=O)c3c(F)ccc(O)c3F)s2)c1

>  <measurement target>
17-beta-hydroxysteroid dehydrogenase type 2 (Homo sapiens)

>  <pIC50>
7.50

$$$$
>  <smiles representation>
NS(=O)(=O)Oc1cccc(-c2ccc(C(=O)c3c(F)ccc(O)c3F)s2)c1F

>  <measurement target>
17-beta-hydroxysteroid dehydrogenase type 2 (Homo sapiens)

>  <pIC50>
7.76

$$$$
>  <smiles representation>
NS(=O)(=O)Oc1ccccc1-c1ccc(C(=O)c2c(F)ccc(O)c2F)s1

>  <measurement target>
17-beta-hydroxysteroid dehydrogenase type 2 (Homo sapiens)

>  <pIC50>
8.39

$$$$
>  <smiles representation>
NS(=O)(=O)Oc1ccc(-c2ccc(C(=O)c3c(F)ccc(O)c3F)s2)c(F)c1

>  <measurement target>
17-beta-hydroxysteroid dehydrogenase type 2 (Homo sapiens)

>  <pIC50>
7.65

$$$$
>  <smiles representation>
NS(=O)(=O)Oc1ccc(-c2ccc(C(=O)c3c(F)ccc(O)c3F)s2)c(F)c1F

>  <measurement target>
17-beta-hydroxysteroid dehydrogenase type 2 (Homo sapiens)

>  <pIC50>
7.63

$$$$

====

Recorded measurements of log10 IC50, one per entry
- measurement target: 17-beta-hydroxysteroid dehydrogenase type 1 (Homo sapiens, UniProt P14061)
- test name: Inhibition of human placental cytosolic 17beta-HSD1 using [3H]-E1/E1 substrate and NADH after 10 mins by HPLC based radio-detection method
measurement name: log10 IC50 (log10 of the value in nM)

>  <smiles representation>
NS(=O)(=O)Oc1ccc(-c2ccc(C(=O)c3c(F)ccc(O)c3F)s2)cc1F

>  <result value>
0.40

$$$$
>  <smiles representation>
NS(=O)(=O)Oc1ccc(-c2ccc(C(=O)c3c(F)ccc(O)c3F)s2)c(F)c1Cl

>  <result value>
0.15

$$$$
>  <smiles representation>
NS(=O)(=O)Oc1cccc(-c2ccc(C(=O)c3c(F)ccc(O)c3F)s2)c1

>  <result value>
0.34

$$$$
>  <smiles representation>
NS(=O)(=O)Oc1ccc(-c2ccc(C(=O)c3c(F)ccc(O)c3F)s2)c(F)c1F

>  <result value>
0.43

$$$$
>  <smiles representation>
O=C(c1ccc(-c2ccc(O)cc2)s1)c1c(F)ccc(O)c1F

>  <result value>
0.49

$$$$
>  <smiles representation>
NS(=O)(=O)Oc1ccc(-c2ccc(C(=O)c3c(F)ccc(O)c3F)s2)cc1

>  <result value>
0.53

$$$$
>  <smiles representation>
NS(=O)(=O)Oc1ccc(-c2ccc(C(=O)c3c(F)ccc(O)c3F)s2)c(F)c1

>  <result value>
1.09

$$$$
>  <smiles representation>
NS(=O)(=O)Oc1ccc(-c2ccc(C(=O)c3c(F)ccc(O)c3F)s2)c(Cl)c1

>  <result value>
1.01

$$$$
>  <smiles representation>
NS(=O)(=O)Oc1ccc(-c2ccc(C(=O)c3c(F)ccc(O)c3F)s2)cc1Cl

>  <result value>
0.04

$$$$
>  <smiles representation>
Cc1cc(-c2ccc(C(=O)c3c(F)ccc(O)c3F)s2)ccc1OS(N)(=O)=O

>  <result value>
1.51

$$$$
